System: SK-MEL-28 melanoma
assay comment: NCI-60 one-dose screen, 48 h (100 = growth as untreated, 0 = no growth, -100 = all killed)
test context: 10 µM unless noted
The panel holds about 83,000 compounds, 20% with a hit somewhere; the sample as a whole holds those more often.
growth overview
Just the number in %, nothing appended.

Here's what some known entries look like.
NC1=NC2(CCCC2)N(c2ccc(S(=O)(=O)Nc3nccs3)cc2)C(N)=N1: 105
CS(=O)(=O)c1ccc(/C(=N/N=C(N)N)c2ccc(Cl)cc2)cc1: 95.1
O=S(=O)(Oc1ccc(-c2cn3ccsc3n2)cc1)c1cccc(C(F)(F)F)c1: 99.6
Cc1nc(N)sc1-c1csc(Nc2ccc(C(F)(F)F)cc2)n1: 42.1

**Q:** What value of growth on SK-MEL-28 melanoma does O=C(CSc1nc2ccccc2c(=O)n1CCc1ccccc1)Nc1ccc(S(=O)(=O)Nc2ccc(Cl)nn2)cc1 have?
**A:** 108

**Q:** What measured growth is associated with CC(=C(c1ccc(OCCN(C)C)cc1)c1ccc(OCCN(C)C)cc1)c1ccc(Cl)cc1 on SK-MEL-28 melanoma?
**A:** -82.6

**Q:** Form entry - test system: SK-MEL-28 melanoma; read-out: growth; compound: CN1CCN(Cc2ccc(NC(=O)c3cncc(C#Cc4cnc5ccc(OCC6COC6)nn45)c3)cc2C(F)(F)F)CC1
**A:** -85

**Q:** Field: growth (SK-MEL-28 melanoma). Entry: CCc1nnc(NC(=O)c2cc(-c3ccc(Cl)cc3Cl)oc2C)s1
**A:** 102

**Q:** # get_value(readout= growth, system= SK-MEL-28 melanoma) for CC1=Cc2ccccc2OC12C=Cc1ccccc1O2 (stereo not given)
**A:** 114

**Q:** Lab note: need growth for COc1ccc2c(c1)c(-c1nnc(N)nc1-c1c[nH]c3ccc(F)cc13)cn2C on SK-MEL-28 melanoma, anyone have it?
**A:** 67.5

###

Tested on: CCRF-CEM leukemia
assay comment: NCI-60 one-dose screen, 48 h
test context: 10 µM unless noted
About 83,000 compounds went through this panel and 20% of them were active in at least one assay; those are over-represented in the sample as a whole. Activity calls are given as the source filed them. How the source made its calls: active means growth percent below 10; inactive means the rest.
Hello, when you answer, please use one of the following outcomes: 1 (yes) (active), 0 (no) (inactive)

Completed entries (count: 5):
Nc1ncc(-c2ccc3ncnc(NCc4ccccc4)c3c2)cn1: 0 (no)
CCCCCc1ccc(S(=O)(=O)Nc2cc(-c3csc(N)n3)ccc2OC)cc1: 0 (no)
CC(C)(O)c1cncc(-c2ccc3ncc(C#N)c(N4CCc5cc(F)c(Cl)cc54)c3c2)c1: 0 (no)
CC(C)(C)OC(=O)NCc1ccc(CNc2c([N+](=O)[O-])cnc3ccccc23)cc1: 0 (no)
O=C(CCCCCCN1CC(=O)N2[C@@H](c3cccs3)c3[nH]c4ccccc4c3C[C@H]2C1=O)NO: 0 (no)

**Q:** What is the recorded call for this compound in the test? O=C(COc1ccc(/C=C2\C(=O)Nc3ccc(Cl)cc32)cc1)Nc1ccc(Cl)cc1
**A:** 0 (no)

**Q:** Please indicate how the test categorized COc1ccc(-c2cc(-c3ccc(N4CCOCC4)cc3)n3c(n2)nc2ccccc23)cc1OC .
**A:** 0 (no)

**Q:** What outcome does the record of this test show for CN(C)c1ccc(/C=N/Nc2nc(N/N=C/c3ccc(N(C)C)cc3)nc(N3CCCCC3)n2)cc1 ?
**A:** 0 (no)

**Q:** What is the recorded call for this compound in the test? Cc1ccc(C(=O)Nc2ccc(CNCCN3CCNCC3)c(C(F)(F)F)c2)cc1C#Cc1cnc2cccnn12
**A:** 1 (yes)
